Just for reference, the antibiotic and cytotoxicity screens of Wong et al. (2023) is where these values come from.

# System: HSkMC
# assay notes: cytotoxicity call (relative viability < 0.9)
# measurement parameters: 10 µM
Screen size: about 39,000 compounds; about 1,500 (3.8%) were called active. Many of the other results were omitted from the sample, so actives are more common in it than they were.
One label from this list, please: active, inactive

Request: Assay result, entry O=C(C[C@@H]1CC=CC[C@H](NC(=O)OCC2c3ccccc3-c3ccccc32)C(=O)O[C@H](c2ccccc2)CNC1=O)N[C@@H](CO)Cc1ccccc1 — outcome?
Response: active

Request: Assay result, entry O=C(N[C@@H]1CC=CC[C@H](CC(=O)N(CCO)Cc2ccccc2)C(=O)NC[C@H](c2ccccc2)OC1=O)OCC1c2ccccc2-c2ccccc21 — outcome?
Response: inactive

Request: Assay result, entry O=C(N[C@H]1CC=CC[C@H](CC(=O)N(CCO)Cc2ccccc2)C(=O)NCC(c2ccccc2)OC1=O)OCC1c2ccccc2-c2ccccc21 (stereo partly drawn) — outcome?
Response: inactive

====

# Tested on: HSkMC (human skeletal muscle cells)
# assay notes: cytotoxicity call (relative viability < 0.9)
# measurement parameters: 10 µM
In all, about 39,000 compounds went through this assay and about 1,500 (3.8%) were called active. Only a selection was taken, and actives are over-represented in it overall.
One label from this list, please: 1 = active, 0 = inactive

Previously resolved entries follow.
C[C@@H]1CN([C@H](C)CO)C(=O)c2cc(NC(=O)Nc3ccc(C(F)(F)F)cc3)ccc2O[C@H]1CN(C)C(=O)Nc1cccc2ccccc12: 0
CC=Cc1ccc2n(c1=O)C[C@H]1[C@H](CO)[C@@H](C(=O)NCCc3cn(C)cn3)N(C(=O)C3CC3)[C@@H]21: 0
COc1ccc2[nH]c3c(-c4cccc5ccccc45)nccc3c2c1: 1
CCCC(=O)Nc1nc2[nH]c(C)cc(=O)n2n1: 0
O=C(O)[C@H]1C[C@H]2C(=O)NCC(=O)N2[C@H]1c1ccc(O)cc1: 0
C[C@@H]1CN([C@@H](C)CO)C(=O)c2cc(NC(=O)Nc3ccccc3)ccc2O[C@H]1CN(C)S(C)(=O)=O: 0

Request: Assay result, entry CCCN(C)C[C@H]1OCCCC[C@@H](C)Oc2ccc(NC(=O)Nc3ccc(F)cc3)cc2C(=O)N([C@@H](C)CO)C[C@H]1C — outcome?
Response: 0

Request: Assay result, entry COc1ccc(S(=O)(=O)Nc2ccc3c(c2)C(=O)N([C@@H](C)CO)C[C@@H](C)[C@@H](CN(C)C(=O)Nc2ccc(C(F)(F)F)cc2)OCCCC[C@@H](C)O3)cc1 — outcome?
Response: 0

Request: Assay result, entry C[C@@H]1CCCCO[C@H](CN(C)C(=O)Nc2ccc3c(c2)OCO3)[C@@H](C)CN([C@@H](C)CO)C(=O)c2cc(NC(=O)CCC(F)(F)F)ccc2O1 — outcome?
Response: 0

Request: Assay result, entry C[C@@H]1CCCCO[C@H](CN(C)S(=O)(=O)c2cccs2)[C@@H](C)CN([C@H](C)CO)C(=O)c2cc(NC(=O)Nc3ccc(C(F)(F)F)cc3)ccc2O1 — outcome?
Response: 0

Request: Assay result, entry COc1ccc(NC(=O)Nc2ccc3c(c2)C(=O)N([C@H](C)CO)C[C@H](C)[C@@H](CN(C)C(=O)Nc2c(C)noc2C)OCCCC[C@@H](C)O3)cc1 — outcome?
Response: 0

Request: Assay result, entry COc1ccc(S(=O)(=O)Nc2ccc3c(c2)C(=O)N([C@@H](C)CO)C[C@H](C)[C@@H](CN(C)C(=O)Nc2ccc(C(F)(F)F)cc2)OCCCC[C@@H](C)O3)cc1 — outcome?
Response: 0

Request: Assay result, entry C[C@]12CC[C@@H]3[C@]4(C=C[C@@]5(C=C4C(=O)C4CCCCC4)C[C@@H](O)CC[C@]35C)[C@@H]1CC[C@@]2(O)CN1CCC(n2c(=O)[nH]c3ccccc32)CC1 — outcome?
Response: 0

Request: Assay result, entry NCC1OC(OC2C(CO)OC(OC3C(O)C(N)CC(N)C3OC3OC(CN)C(O)C(O)C3N)C2O)C(N)C(O)C1O.O=S(=O)(O)O.O=S(=O)(O)O.O=S(=O)(O)O (centres undefined) — outcome?
Response: 0
